These measurements were taken from paper PMC7700221.

Here the recorded IC50 is given for each entry.
- Tested on: A549 lung cancer cells
- PROTOCOL_DETAILS: cells
- CONDITIONS: Homo sapiens, A549, 72 h, read-out: IC50 (µM) ± S.D. A549
PROPERTY_MEASURED: IC50

>>> data_value("C1N2CN3CN1CP(C2)C3")
"> 100 µM"
>>> data_value("O=S1(=O)N2CN3CN1CP(C3)C2")
"> 100 µM"
>>> data_value("CC(=O)N1CN2CN(C(C)=O)CP(C2)C1")
"> 100 µM"
>>> data_value("N#CCCP(CCC#N)CCC#N")
"> 100 µM"
>>> data_value("c1ccc(P(c2ccccc2)c2ccccc2)cc1")
"30.1 µM"

---

- Test system: A375 melanoma cells
- PROTOCOL_DETAILS: cells
- CONDITIONS: Homo sapiens, A-375, 72 h, read-out: IC50 (µM) ± S.D. A375
Here the recorded IC50 is given for each entry.
PROPERTY_MEASURED: IC50

>>> data_value("O=S1(=O)N2CN3CN1CP(C3)C2 [PTA-SO2]")
"> 100 µM"
>>> data_value("CC(=O)N1CN2CN(C(C)=O)CP(C2)C1 [DAPTA]")
"> 100 µM"
>>> data_value("N#CCCP(CCC#N)CCC#N [PCN, tris(cyanoethyl)phosphine]")
"> 100 µM"
>>> data_value("C1N2CN3CN1CP(C2)C3 [PTA, 1,3,5-triaza-7-phosphaadamantane]")
"> 100 µM"
>>> data_value("c1ccc(P(c2ccccc2)c2ccccc2)cc1 [PPh3, triphenylphosphine]")
"52.3 µM"

---

- Test system: HCT-15 colon cancer cells
- PROTOCOL_DETAILS: cells
- CONDITIONS: Homo sapiens, HCT-15, 72 h, read-out: IC50 (µM) ± S.D. HCT-15
PROPERTY_MEASURED: IC50

>>> data_value("O=S1(=O)N2CN3CN1CP(C3)C2")
"> 100 µM"
>>> data_value("N#CCCP(CCC#N)CCC#N")
"> 100 µM"
>>> data_value("C1N2CN3CN1CP(C2)C3")
"> 100 µM"
